- Tested on: NCI-H23
- methodDescription: NCI tumour cell line growth inhibition, 48 h
Calls of active or inactive are those of the source. No stated cut-off is given here; in the data, active = GI50 up to about 1.1 µM and inactive = higher.
Catalogue of GI50 values

-- ask What value of measured GI50 is listed for COc1ccc2c(c1OC)C[C@@H]1c3c(cc4c(c3-2)OCO4)CCN1C ?
-- reply 50.1 µM (inactive)

-- ask Then N=C(N)NS(=O)(=O)c1ccc(NNC(=O)c2cccc3c(O)c4ccccc4nc23)cc1 ?
-- reply 31.2 µM (inactive)

-- ask Then O=C1Cc2c([nH]c3ccc(Br)cc23)-c2cc(O)c(O)cc2N1 ?
-- reply > 100 µM (inactive)

-- ask Then CC(=O)Nc1ccc(/N=C2\C(c3ccccc3)=C(SC3=C(c4ccccc4)/C(=N\c4ccc(NC(C)=O)cc4)c4ccccc43)c3ccccc32)cc1 ?
-- reply 31.3 µM (inactive)

----------
Catalogue of GI50 values
- System: NCI-H226
- methodDescription: NCI tumour cell line growth inhibition, 48 h
Calls of active or inactive are those of the source. Rule as the data show it: active = GI50 up to about 1.1 µM and inactive = higher.

Below, each entry is followed by its recorded GI50 result.
compound	targetEntity	GI50
C=CCCCC1CCCNC1=O (centres undefined)	NCI-H226	> 100 µM (inactive)
CCN(CC)CCC(=O)c1ccc(Oc2ccccc2)cc1	NCI-H226	> 100 µM (inactive)
Cc1c(O)c(OC2OC(CO)C(O)C(O)C2O)cc2c1CC[C@@H]1C2(C)C(=O)C[C@]2(C)[C@@H]([C@@](C)(O)C(=O)CCC(C)(C)O)[C@H](O)C[C@@]12C (some centres undefined)	NCI-H226	> 100 µM (inactive)

-- ask What value of measured GI50 is listed for CCOC(=O)c1nc2cc(C(F)(F)F)ccc2nc1Oc1ccc(C(=O)OC)cc1 ?
-- reply > 100 µM (inactive)

-- ask Then CCOC(=O)C1C(C)C2(C#N)C(=N)OC1(C)C2(C#N)C#N (centres undefined) ?
-- reply 73.8 µM (inactive)

-- ask Then Nc1c(C(=O)O)c2ccc([N+](=O)[O-])cc2c(=O)n1-c1nc2ccccc2s1 ?
-- reply > 100 µM (inactive)

-- ask Then C=C1CCC2CC1C(C(=O)c1c[nH]c3ccccc13)=NC2(C)C (centres undefined) ?
-- reply > 100 µM (inactive)

-- ask Then Cn1ccnc1Sc1ccc(/C=N/c2ccc3nc(SCC(=O)NC4CCCCC4)sc3c2)cc1[N+](=O)[O-] ?
-- reply > 100 µM (inactive)

-- ask Then NC(CCCCNC(=O)OCc1ccccc1)C(=O)NC(CCCCNC(=O)OCc1ccccc1)C(=O)ON1C(=O)CCC1=O (centres undefined) ?
-- reply > 100 µM (inactive)

----------
- System: NCI-H23
- methodDescription: NCI tumour cell line growth inhibition, 48 h
Activity calls are given as the source filed them. Rule as the data show it: active = GI50 up to about 1.1 µM and inactive = higher.
Catalogue of GI50 values

compound	GI50
CCN(CC)c1ccc2cc(C(=O)NCc3ccccc3)c(=N)oc2c1	31.1 µM (inactive)

-- ask What value of measured GI50 is listed for N#Cc1c(-c2ccc([N+](=O)[O-])cc2)cc(-c2ccc(Nc3ccnc4cc(Cl)ccc34)cc2)nc1N ?
-- reply 25.2 µM (inactive)

-- ask Then CC(C)CC(NC(=O)c1cccc(O)c1O)C(=O)NCc1cc(CNC(=O)C(CC(C)C)NC(=O)c2cccc(O)c2O)cc(CNC(=O)C(CC(C)C)NC(=O)c2cccc(O)c2O)c1 (stereo not given) ?
-- reply 15.6 µM (inactive)

-- ask Then Nc1c(C(=O)O)c2ccc([N+](=O)[O-])cc2c(=O)n1-c1nc2ccccc2s1 ?
-- reply > 100 µM (inactive)
